# Assay explanation: Determination of lipophilicity by RP UPLC
# Assay type: physicochemical
# Details: log k = log kw + SΦ
Parameter: -S (slope of the regression curve)
# output: bare number, no unit

{"Structure": "CC(=O)c1ccc([N+]2=NN(CCCl)CC2)cc1.[Cl-]", "-S (slope of the regression curve)": 0.755}

Query: Item Cc1ccc([N+]2=NN(CCCl)CC2)cc1.[Cl-] has what recorded -S (slope of the regression curve)?
Result: 2.000

Query: Item Fc1ccc([N+]2=NN(CCCl)CC2)cc1.[Cl-] has what recorded -S (slope of the regression curve)?
Result: 1.027

Query: Item ClCCN1CC[N+](c2ccccc2)=N1.[Cl-] has what recorded -S (slope of the regression curve)?
Result: 1.318

Query: Item CCOC(=O)c1ccc([N+]2=NN(CCCl)CC2)cc1.[Cl-] has what recorded -S (slope of the regression curve)?
Result: 2.259

Query: Item O=[N+]([O-])c1ccc([N+]2=NN(CCCl)CC2)cc1.[Cl-] has what recorded -S (slope of the regression curve)?
Result: 0.594

Query: Item ClCCN1CC[N+](c2ccc(Cl)cc2)=N1.[Cl-] has what recorded -S (slope of the regression curve)?
Result: 2.928

Query: Item FC(F)(F)c1cccc([N+]2=NN(CCCl)CC2)c1.[Cl-] has what recorded -S (slope of the regression curve)?
Result: 2.802

Reference for the values: paper PMC6438848
